Test: M. tuberculosis growth inhibition, HTS (AID 449762);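 further: bacterial growth assessed after seven days of incubation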
Conditions: M. tuberculosis H37Rv growth inhibition, 7H9 media; at 25 µM; stronger effect = higher value
In all, about 330,000 compounds went through this assay and about 1,900 (0.58%) were called active. Not shown: some 4% with an inconclusive outcome. A selection follows. Entries with a potency or affinity are not part of this list.
endpoint_name: inhibition (%)

compound: CC(c1nc2ccccc2c(=O)[nH]1)N(C)c1ccc2ccccc2c1 (configuration not stated)
endpoint_name: inhibition
value_measured: -13.1
//
compound: C#CCSc1nc2ccccc2n1C(=O)c1ccc(S(=O)(=O)N2CCCCC2)cc1
endpoint_name: inhibition
value_measured: -2.86
//
compound: CC1(C)CC(NC(=O)C2CCN(S(=O)(=O)c3ccccc3C(F)(F)F)CC2)CC(C)(C)N1
endpoint_name: inhibition
value_measured: -16.1
//
compound: Cc1[nH]nc2c1C(c1cccs1)C1=C(CC(C)(C)CC1=O)N2 (configuration not stated)
endpoint_name: inhibition
value_measured: -4.07
//
compound: CC(C)(C)c1ccc(Cn2nnc3c(=O)[nH]c(C4CCCN(C(=O)c5cccs5)C4)nc32)cc1 (configuration not stated)
endpoint_name: inhibition
value_measured: 11.9
//
compound: CN(CCOc1ccccc1)Cc1nc2cc(Cl)ccc2c(=O)[nH]1
endpoint_name: inhibition
value_measured: 58.8
//
compound: O=C(c1cc(-c2cccc(Cl)c2)nc2ccccc12)N1CCCC1
endpoint_name: inhibition
value_measured: 4.01
//
compound: CC(C)Cn1c2c(c(O)c(C(=O)Nc3nccs3)c1=O)CCCC2
endpoint_name: inhibition
value_measured: 8.72
//
compound: O=C(N/N=C(\CC(=O)c1cccs1)C(F)(F)F)c1cccnc1
endpoint_name: inhibition
value_measured: -1.08
//
compound: CCOC(=O)N1CCN(C(=S)NC(=O)c2cccc(OC)c2)CC1
endpoint_name: inhibition
value_measured: -0.27
//
compound: CCCCn1c(=O)c(C(=O)NCc2ccc(Cl)cc2)c(O)c2ccccc21
endpoint_name: inhibition
value_measured: 13
//
compound: Cc1ccc(-n2nnnc2CNC(=O)c2ccc(Br)o2)cc1C
endpoint_name: inhibition
value_measured: 11.2
//
compound: O=C(NCc1nnnn1-c1ccc(Cl)cc1)c1ccc(Br)o1
endpoint_name: inhibition
value_measured: -0.54
//
compound: CCOc1ccc(N=c2cc(-c3ccc(OC)cc3)oc3ccccc23)cc1
endpoint_name: inhibition
value_measured: 2.75
//
compound: CC1=NOC(=O)/C1=C\c1ccc(-c2ccc(Br)cc2C(=O)O)o1
endpoint_name: inhibition
value_measured: -4.04
//
compound: COc1ccc2nc(NC(=O)C3CSC4(C)CCC(=O)N34)sc2c1 (configuration not stated)
endpoint_name: inhibition
value_measured: 8.66
//
compound: CCc1ccc(NC(=S)Nc2ccc3cn[nH]c3c2)cc1
endpoint_name: inhibition
value_measured: 32
//
compound: CN(C(=O)CSc1nnc(-c2ccncc2)n1-c1ccccc1)C1CCS(=O)(=O)C1 (configuration not stated)
endpoint_name: inhibition
value_measured: -8.96
//
compound: CN1C(=S)SC(N(O)C(=O)Nc2cccc3ccccc23)C1(C)C (configuration not stated)
endpoint_name: inhibition
value_measured: 3.28
//
compound: Cc1csc(NC(=O)c2c(O)c3c(n(CC(C)C)c2=O)CCCC3)n1
endpoint_name: inhibition
value_measured: 65.9
//
compound: O=C(SCC(O)C(O)CS)c1cccs1 (configuration not stated)
endpoint_name: inhibition
value_measured: -1.44
//
compound: O=C(O)/C=C/C(=O)N1CCN(Cc2ccc3c(c2)OCO3)CC1
endpoint_name: inhibition
value_measured: -4.14

Hello, the source for this data is PubChem BioAssay AID449762, in case you need it.
